test system: MDA-MB-435; experiment: NCI tumour cell line growth inhibition, 48 h
The following compounds are listed with their measured TGI values.
measure name: TGI

> print(dat)
                                    compound  measure.name     result
 1  O=C(/C=C/c1ccc(O)c(O)c1)OCCc1cccc2ccccc12           TGI    4.65 µM
 2         O=C1c2ccccc2-c2nnc(-c3ccccc3)cc21           TGI    > 10 µM
 3  CCN(CC)c1ccc2c(c1)Oc1nc(N)c(C#N)c(N)c1C2Sc1ccc(SC)cc1 (stereo unspecified)           TGI    3.58 µM
 4  COC(=O)c1ccccc1NC(=O)/C(=N\NC(C)(C)C)C(C#N)c1nc(-c2ccc([N+](=O)[O-])cc2)cs1 (stereo unspecified)           TGI   > 100 µM
 5  O=C(N/N=C1\CCc2ccccc2C1)N/N=C1\CCc2ccccc2C1           TGI    > 10 µM
 6  NC1CC(=O)c2csc(Br)c21 (stereo unspecified)           TGI    32.9 µM
 7  O=P(O)(O)C(O)/C=C/c1ccccc1 (stereo unspecified)           TGI   > 100 µM
 8                       C=C=C(C)[Si](C)(C)C           TGI   > 100 µM
 9  CCSC1=N/C(=C\c2ccccc2O)C(Nc2ccc(C)cc2)=N1           TGI   > 100 µM
10  CC1C(c2ccc3c(c2)OCO3)c2cc3c(cc2OC1N1CCCC1)OCO3 (stereo unspecified)           TGI    23.7 µM
11  COc1ccc2c(c1)CC[C@@H]1[C@@H]2CC[C@@]2(C)[C@H]1CC1(CCCCC1)[C@@H]2O           TGI    33.8 µM
12  CC[C@@]1(O)C(=O)OCc2c1cc1n(c2=O)Cc2c-1nc1ccccc1c2CC[Si](C)(C)C           TGI   > 100 µM
13            Nc1ccc2c(c1)C(=O)c1c(F)cccc1-2           TGI   > 100 µM
14    Cc1nc2c(o1)C(=O)c1ccccc1/C2=N/c1ccccn1           TGI    31.9 µM
15  COc1cc(OC)c2c(=O)c(O)c(-c3ccc(OC)c(OC)c3)oc2c1           TGI  > 31.6 µM
16  CC(C)CCC1(O)O[C@H]2C[C@H]3[C@@H]4CCC5CC(=O)C=C[C@]5(C)[C@H]4CC[C@]3(C)[C@H]2[C@@H]1C (stereo partly specified)           TGI    24.5 µM
17  Cc1cc2[nH]c3c(C#N)c(-c4ccccc4)c(N=Nc4cccc(C(F)(F)F)c4)c(=O)n3c2cc1C           TGI   > 100 µM
18  COP(C)(=O)/C(Cc1ccccc1)=N\O (stereo unspecified)           TGI   > 100 µM
19  CN1CCN(c2ccc3c4c(cccc24)C(=O)N(CCN2CCN(CCCN4CCN(CCN5C(=O)c6cccc7c(N8CCN(C)CC8)ccc(c67)C5=O)CC4)CC2)C3=O)CC1           TGI    15.5 µM
20  CC1CCCC2=C1C(c1ccc(Cl)cc1)n1c(s/c(=C\c3ccc(Cl)cc3)c1=O)=N2 (stereo unspecified)           TGI   > 100 µM
21   COc1ccc(-c2n[nH]nc2-c2csc3ccccc23)cc1OC           TGI    3.52 µM
